Protocol notes: Counterscreen qHTS for Inhibitors of Tau Fibril Formation, Fluorescence Polarization; note: nearly all actives have a fitted effect of over 55% in size
Settings: tau K18 P301L (four-repeat tau fragment) Alexa594 fluorescence, heparin fibrillization; series mostly up to 57.7 µM
The campaign covered roughly 280,000 compounds. About 2,600 (0.93%) were called active. Inconclusive results (about 8%) are left out. Calls come from the whole dose curve; as a rule, active = well fitted curve in the direction sought with a large enough effect; inconclusive = small, poorly fitted or top-dose-only effect; inactive = flat fitted curve, though single readings scatter. This excerpt belongs to a sample that is enriched for actives.
Please reply with one of these outcomes: active, inactive

Compound: COc1ccc(Nc2ncc(C(=O)Nc3cc(C)ccc3OC)c3ccccc23)cc1
Qualitative label: active

Query: Check the results log: what was the call for Cc1cc2c(cc1C)C(c1cccc(OC(C)C)c1)CC(=O)N2 (stereo unspecified) ?
Reply: inactive

Query: COc1ccccc1/C=C/c1nc(C#N)c(NC(C)c2ccccc2)o1 (stereo unspecified) ?
Reply: active

Query: `CCN(CCCNC(=O)c1cc2cc3cc(OC)ccc3nc2s1)c1ccccc1` ?
Reply: active

Query: CC(Nc1oc(-c2ccccc2)nc1-c1ccccc1)c1ccccc1 (stereo unspecified) ?
Reply: inactive

Query: `COC(=O)c1sccc1S(=O)(=O)N(CC(=O)Nc1ccc(C)c(F)c1)c1ccc(C)c(C)c1` ?
Reply: inactive

Query: `CCOc1ccccc1NC(=O)CN1CCCN(Cc2cccc(Cl)c2)S1(=O)=O` ?
Reply: inactive

Query: `CCN1CCN(C(=O)c2cc3cc4ccc(OC)cc4nc3s2)CC1` ?
Reply: inactive
